experiment: pharmacokinetic study of GJG-derived compounds in rat plasma (LC-MS/MS); type: in vivo; details: after oral administration of GJG 1.0 g/kg
REPORTED PROPERTY: time at which maximum plasma concentration (Cmax) was reached (min)
Dear colleague, please return just the value in min, with no unit written.

[
  {
    "COMPOUND": "COC(=O)C1=CO[C@@H](O[C@@H]2O[C@H](CO)[C@@H](O)[C@H](O)[C@H]2O)[C@@H]2[C@@H](C)[C@@H](O)C[C@H]12 [Loganin, loganin]",
    "RECORDED RESULT": 30
  }
]

query: Query: time at which maximum plasma concentration (Cmax) was reached; subject: COC(=O)C1=CO[C@@H](O[C@@H]2O[C@H](CO)[C@@H](O)[C@H](O)[C@H]2O)[C@@H]2[C@H](C)O[C@@H](O)C[C@H]12 [Morroniside, morroniside]
result: 30

query: And what about the compound C[C@@]12C[C@@]3(O)O[C@@H](O1)[C@]1(COC(=O)c4ccccc4)[C@H]3C[C@@]12O[C@@H]1O[C@H](CO)[C@@H](O)[C@H](O)[C@H]1O [Paeoniflorin, paeoniflorin] ?
result: 30

query: And what about the compound OC[C@H]1O[C@@H](O[C@@H]2OC=C[C@H]3[C@H](O)[C@@H]4O[C@]4(CO)[C@@H]23)[C@H](O)[C@@H](O)[C@@H]1O [Catalpol, catalpol] ?
result: 60

Data provenance is paper PMC4635352.
